FYI, the data here is from the supplement of paper PMC10627819.

# Bliss interaction score per entry
tested on: S. pneumoniae D39V; assay: Bliss interaction score (quartile over a dose matrix) (fitness difference); higher = more antagonism (negative = synergy);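 further: first quartile when negative (synergy) and third quartile when positive (antagonism)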

| COMPOUND | Bliss interaction score |
| --- | --- |
| CC[C@H]1OC(=O)[C@H](C)[C@@H](O[C@H]2C[C@@](C)(OC)[C@@H](O)[C@H](C)O2)[C@H](C)[C@@H](O[C@@H]2O[C@H](C)C[C@H](N(C)C)[C@H]2O)[C@](C)(O)C[C@@H](C)C(=O)[C@H](C)[C@@H](O)[C@]1(C)O [Erythromycin] + CN[C@@H]1[C@H](O)[C@H](NC)[C@H]2O[C@@]3(O)C(=O)C[C@@H](C)O[C@H]3O[C@@H]2[C@H]1O [Spectinomycin] | -0.0547 |
| CN[C@@H]1[C@H](O)[C@H](NC)[C@H]2O[C@@]3(O)C(=O)C[C@@H](C)O[C@H]3O[C@@H]2[C@H]1O [Spectinomycin] + CC1=C\[C@@H](O)CC(=O)Cc2nc(co2)C(=O)N2CCC=C2C(=O)O[C@H](C(C)C)[C@H](C)/C=C/C(=O)NC\C=C\1 [Virginiamycin M1] | 0.052 |
| CO[C@@]12[C@H](COC(N)=O)C3=C(C(=O)C(C)=C(N)C3=O)N1C[C@@H]1N[C@@H]12 [MitomycinC] + CCN(CC)CCOC(=O)c1ccc(N)cc1 [Procaine] | 0.0639 |
| CC(=O)NC[C@H]1CN(c2ccc(N3CCOCC3)c(F)c2)C(=O)O1 [Linezolid] + CC1=C\[C@@H](O)CC(=O)Cc2nc(co2)C(=O)N2CCC=C2C(=O)O[C@H](C(C)C)[C@H](C)/C=C/C(=O)NC\C=C\1 [Virginiamycin M1] | -0.0638 |
